As shown below, each of these compounds has a reported pIC50 value.
system: THP1-Dual KO-TREX1 cells; assay: THP1 TREX1 KO inhibition assay (type 1 interferon response); type: cell-based; details: Homo sapiens, 144 h, type 1 interferon (QUANTI-LUC), 1 μM 5-aza-2′-deoxycytidine, six days
pIC50: −log10 of the molar value.

Example results:
pIC50 reported for this compound CC[C@]1(CO)O[C@@H](n2cnc3c(N)nc(F)nc32)[C@@H](F)[C@@H]1O : < 6.00

pIC50 reported for this compound C#C[C@]1(CO)O[C@@H](n2ccc(N)nc2=O)[C@@H](F)[C@@H]1O : 6.00 to 6.60

pIC50 reported for this compound [N-]=[N+]=N[C@]1(CO)O[C@@H](c2ccc3c(N)ncnn23)C[C@@H]1O : < 6.00

pIC50 reported for this compound CO[C@@H]1[C@H](n2ccc(N)nc2=O)O[C@@](CO)(CCl)[C@H]1O : < 6.00

pIC50 reported for this compound CC[C@]1(CO)O[C@@H](n2cnc3c(N)nc(F)nc32)C[C@@H]1O : < 6.00

Next:
pIC50 reported for this compound Nc1ccn([C@@H]2O[C@H](CO)[C@@H](O)C2(F)F)c(=O)n1 : 7.00 to 7.30

pIC50 reported for this compound C#C[C@]1(CO)O[C@@H](n2cnc3c(N)nc(Cl)nc32)[C@@H](F)[C@@H]1O : < 6.00

pIC50 reported for this compound Nc1ccn([C@@H]2O[C@@](CO)(CCl)[C@@H](O)C2(F)F)c(=O)n1 : < 6.00

###

test system: THP1-Dual KO-TREX1 cells; assay: THP1 TREX1 KO inhibition assay, combination dosing; format: cell-based; conditions: Homo sapiens, THP1-Dual, Stampidine 0.1 μM; read-out: EC50 of Compound 2
Assay Endpoint: EC50 (nM)
Kindly answer with a numeric value in nM, unit omitted.

EC50 reported for this compound Nc1ccn([C@H]2C[C@H](O)[C@](CO)(CCl)O2)c(=O)n1 : 0.15

###

test system: phosphorylated TANK-binding kinase 1 (pTBK1); test: UVB-induced pTBK1 in HaCaT cells; type: cell-based; details: Homo sapiens, light or radiation study, pTBK1 response curves, 72 hours compound treatment, UVB
pIC50: −log10 of the molar value.
As shown below, each of these compounds has a reported pIC50 value.

pIC50 reported for this compound Nc1ccn([C@H]2C[C@H](O)[C@](CO)(CCl)O2)c(=O)n1 : ≥ 6.30

pIC50 reported for this compound Nc1nc(=O)n([C@@H]2O[C@@](CO)(CF)[C@@H](O)[C@@H]2F)cc1F : 5.00 to 5.30

pIC50 reported for this compound Nc1nc(=O)n([C@@H]2O[C@@](CO)(CCl)[C@@H](O)[C@@H]2F)cc1F : 5.30 to 5.70

pIC50 reported for this compound Nc1ccn([C@H]2C[C@H](O)[C@](CO)(C(F)(F)F)O2)c(=O)n1 : < 5.00

pIC50 reported for this compound Nc1nc(=O)n([C@H]2C[C@H](O)[C@](CO)(CBr)O2)cc1F : < 5.00

Next:
pIC50 reported for this compound CC[C@]1(CO)O[C@@H](n2ccc(N)nc2=O)[C@@H](F)[C@@H]1O : < 5.00

pIC50 reported for this compound Nc1ccn([C@@H]2O[C@@](CO)(CCl)[C@@H](O)[C@@H]2F)c(=O)n1 : 5.30 to 5.70

###

system: phosphorylated TANK-binding kinase 1 (pTBK1); experiment: UVB-induced pTBK1 in HaCaT cells; assay type: cell-based; conditions: Homo sapiens, light or radiation study, pTBK1 response curves, 72 hours compound treatment, UVB
pIC50: −log10 of the molar value.
As shown below, each of these compounds has a reported pIC50 value.

pIC50 reported for this compound [N-]=[N+]=N[C@]1(CO)O[C@@H](n2cc(F)c(N)nc2=O)C[C@@H]1O : < 5.00

Next:
pIC50 reported for this compound Nc1nc(=O)n([C@H]2C[C@H](O)[C@](CO)(CCl)O2)cc1F : 5.70 to 6.30

pIC50 reported for this compound C[C@@H]1[C@H](n2ccc(N)nc2=O)O[C@@](CO)(CCl)[C@H]1O : < 5.00

pIC50 reported for this compound Nc1ccn([C@H]2C[C@H](O)[C@](CO)(C3CC3)O2)c(=O)n1 : < 5.00

###

As shown below, each of these compounds has a reported IC50 value.
system: THP1-Dual KO-TREX1 cells; experiment: THP1 TREX1 KO inhibition assay (type 1 interferon response); format: cell-based; settings: Homo sapiens, 144 h, type 1 interferon (QUANTI-LUC), 1 μM 5-aza-2′-deoxycytidine, six days

IC50 of [N-]=[N+]=N[C@]1(CO)O[C@@H](n2cc(F)c(N)nc2=O)C[C@@H]1O , assay on THP1-Dual KO-TREX1 cells, is > 1000 nM

###

test system: THP1-Dual KO-TREX1 cells; experiment: THP1 TREX1 KO inhibition assay (type 1 interferon response); assay type: cell-based; conditions: Homo sapiens, 144 h, type 1 interferon (QUANTI-LUC), 1 μM 5-aza-2′-deoxycytidine, six days
pIC50: −log10 of the molar value.
As shown below, each of these molecules has a reported pIC50 value.

Example results:
pIC50 reported for this molecule C=C[C@]1(CO)O[C@@H](n2cnc3c(N)nc(F)nc32)[C@@H](F)[C@@H]1O [Compound 80] : < 6.00

pIC50 reported for this molecule C#C[C@]1(CO)O[C@@H](n2cnc3c(N)nc(F)nc32)C[C@@H]1O [Compound 23] : < 6.00

pIC50 reported for this molecule CC[C@]1(CO)O[C@@H](n2cc(F)c(N)nc2=O)C[C@@H]1O [Compound 82] : < 6.00

Now turn to the next molecule.
pIC50 reported for this molecule Nc1ccn([C@H]2C[C@H](O)[C@](CO)(CC(F)(F)F)O2)c(=O)n1 [Compound 62] : < 6.00

###

As shown below, each of these compounds has a reported pIC50 value.
system: THP1-Dual KO-TREX1 cells; experiment: THP1 TREX1 KO inhibition assay (type 1 interferon response); type: cell-based; conditions: Homo sapiens, 144 h, type 1 interferon (QUANTI-LUC), 1 μM 5-aza-2′-deoxycytidine, six days
pIC50: −log10 of the molar value.

pIC50 of Cc1cn([C@H]2C[C@H](O)[C@](CO)(CCl)O2)c(=O)nc1N [Compound 11] , assay on THP1-Dual KO-TREX1 cells, is < 6.00

Now turn to the next compound.
pIC50 of C#C[C@]1(CO)O[C@@H](n2ccc(N)nc2=O)[C@H](F)[C@@H]1O [Compound 32] , assay on THP1-Dual KO-TREX1 cells, is < 6.00

###

tested on: THP1-Dual KO-TREX1 cells; assay: THP1 TREX1 KO inhibition assay, combination dosing; format: cell-based; settings: Homo sapiens, THP1-Dual, Stampidine 0.01 μM; read-out: EC50 of Compound 2
Assay Endpoint: EC50 (nM)
Kindly answer with a numeric value in nM, unit omitted.

EC50 reported for this compound Nc1ccn([C@H]2C[C@H](O)[C@](CO)(CCl)O2)c(=O)n1 [Compound 2] : 20.3

###

system: phosphorylated TANK-binding kinase 1 (pTBK1); assay: UVB-induced pTBK1 in HaCaT cells; type: cell-based; settings: Homo sapiens, light or radiation study, pTBK1 response curves, 72 hours compound treatment, UVB
pIC50: −log10 of the molar value.
As shown below, each of these molecules has a reported pIC50 value.

Example results:
pIC50 reported for this molecule CO[C@@H]1[C@H](n2ccc(N)nc2=O)O[C@@](CO)(CCl)[C@H]1O : < 5.00

pIC50 reported for this molecule Nc1nc(=O)n([C@@H]2O[C@@](CO)(CF)[C@@H](O)[C@@H]2O)cc1F : 5.00 to 5.30

pIC50 reported for this molecule C[C@@H]1[C@H](n2ccc(N)nc2=O)O[C@](C)(CO)[C@H]1O : < 5.00

pIC50 reported for this molecule Nc1ncnc2c1ncn2[C@H]1C[C@H](O)[C@](CO)(CCl)O1 : < 5.00

Next:
pIC50 reported for this molecule CC[C@]1(CO)O[C@@H](n2ccc(N)nc2=O)C[C@@H]1O : < 5.00

###

As shown below, each of these molecules has a reported IC50 value.
tested on: THP1-Dual KO-TREX1 cells; assay: THP1 TREX1 KO inhibition assay (type 1 interferon response); type: cell-based; conditions: Homo sapiens, 144 h, type 1 interferon (QUANTI-LUC), 1 μM 5-aza-2′-deoxycytidine, six days

Example results:
IC50 reported for this molecule Nc1nc(=O)n([C@H]2C[C@H](O)[C@](CO)(C3CC3)O2)cc1F : > 1000 nM

IC50 reported for this molecule Nc1nc(=O)n([C@@H]2O[C@@](CO)(CBr)[C@@H](O)[C@@H]2F)cc1F : > 1000 nM

IC50 reported for this molecule C#C[C@]1(CO)O[C@@H](n2ccc(N)nc2=O)C[C@@H]1O : > 1000 nM

Next:
IC50 reported for this molecule [N-]=[N+]=N[C@]1(CO)O[C@@H](n2ccc(N)nc2=O)[C@@H](F)[C@@H]1O : 250 to 1000 nM

IC50 reported for this molecule O=c1nc(NO)ccn1[C@H]1C[C@H](O)[C@](CO)(CCl)O1 : > 1000 nM

IC50 reported for this molecule C=C[C@]1(CO)O[C@@H](n2cnc3c(N)nc(F)nc32)C[C@@H]1O : > 1000 nM

IC50 reported for this molecule O=c1[nH]c(=O)n([C@@H]2O[C@@](CO)(CCO)[C@@H](O)[C@@H]2F)cc1F : > 1000 nM
